target: T1, human PCSK9 (proprotein convertase subtilisin kexin type 9) (human, UniProt Q8NBP7 31-692); test: FRET direct binding, anti-his6 antibody
T1 construct: Directly immobilized (SPR ProteOn), biotinylated (BLI), or in solution, depending on the assay; also called hPCSK9
T1 sequence (Q8NBP7 31-692 limits assumed): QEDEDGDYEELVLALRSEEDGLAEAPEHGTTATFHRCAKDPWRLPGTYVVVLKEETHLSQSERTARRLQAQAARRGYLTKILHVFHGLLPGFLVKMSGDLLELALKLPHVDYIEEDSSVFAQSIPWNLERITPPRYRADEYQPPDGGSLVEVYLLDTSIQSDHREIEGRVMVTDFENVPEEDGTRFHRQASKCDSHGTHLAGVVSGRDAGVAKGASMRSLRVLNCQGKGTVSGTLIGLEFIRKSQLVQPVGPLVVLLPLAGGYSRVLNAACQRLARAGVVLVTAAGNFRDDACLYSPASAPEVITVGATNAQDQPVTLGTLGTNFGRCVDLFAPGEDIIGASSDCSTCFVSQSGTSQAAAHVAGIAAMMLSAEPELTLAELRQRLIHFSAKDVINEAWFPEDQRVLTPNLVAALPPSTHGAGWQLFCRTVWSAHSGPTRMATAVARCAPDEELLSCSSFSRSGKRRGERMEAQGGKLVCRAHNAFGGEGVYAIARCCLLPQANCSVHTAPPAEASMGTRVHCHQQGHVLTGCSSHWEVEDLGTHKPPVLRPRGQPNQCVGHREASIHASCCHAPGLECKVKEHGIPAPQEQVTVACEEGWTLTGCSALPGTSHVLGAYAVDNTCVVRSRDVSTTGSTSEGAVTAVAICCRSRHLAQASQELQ
pEC50: −log10 of the molar value.
Measurement Type: pEC50

a = 2381B02 (designed binder, Anti-PCSK9 Adnectin, His6-tagged) MGVSDVPRDLEVVAATPTSLLISWEPFSRLPGGGEYYRITYGETGGNSPLQQFTVPGSKGTATISGLKPGVDYTITVYAVEYPYDYSGYYHRPISINYRTEIDKPSQHHHHHH
b = 2382D03 (designed binder, Anti-PCSK9 Adnectin, His6-tagged) MGVSDVPRDLEVVAATPTSLLISWDAPADEAYGYYRITYGETGGNSPVQEFTVPVSKGTATISGLKPGVDYTITVYAVEFDFPGAGYYHRPISINYRTEIDKPSQHHHHHH
stdin: Which is greater in pEC50, the first item a or the second item b ? Refer to your chosen entry by its label in the reply.
stdout: b
(b: 8.48, a: 8.08)
